# assay-remarks: Fluorophore characterization
# Type: physicochemical
# assay-context: 37°C, phosphate buffer 100 mM pH 8, 0.1 mg/mL BSA, 1% DMSO
quantity-name: Relative Fluorescence Intensity

COc1ccc(N)c(C)n1    4,400 RFU/nmol
COc1ccc2cc(C=O)ccc2c1    2,600 RFU/nmol
COc1ccc(N)cn1    3,100 RFU/nmol

Now consider the entry below.
IN: Quick one: give measured Relative Fluorescence Intensity for COc1nc(C)ccc1N
OUT: 1,100 RFU/nmol

###

Please provide measured IC50 for the entries that follow.
# target-or-system: FAAH (Homo sapiens, UniProt O00519)
# Sequence (O00519 whole entry): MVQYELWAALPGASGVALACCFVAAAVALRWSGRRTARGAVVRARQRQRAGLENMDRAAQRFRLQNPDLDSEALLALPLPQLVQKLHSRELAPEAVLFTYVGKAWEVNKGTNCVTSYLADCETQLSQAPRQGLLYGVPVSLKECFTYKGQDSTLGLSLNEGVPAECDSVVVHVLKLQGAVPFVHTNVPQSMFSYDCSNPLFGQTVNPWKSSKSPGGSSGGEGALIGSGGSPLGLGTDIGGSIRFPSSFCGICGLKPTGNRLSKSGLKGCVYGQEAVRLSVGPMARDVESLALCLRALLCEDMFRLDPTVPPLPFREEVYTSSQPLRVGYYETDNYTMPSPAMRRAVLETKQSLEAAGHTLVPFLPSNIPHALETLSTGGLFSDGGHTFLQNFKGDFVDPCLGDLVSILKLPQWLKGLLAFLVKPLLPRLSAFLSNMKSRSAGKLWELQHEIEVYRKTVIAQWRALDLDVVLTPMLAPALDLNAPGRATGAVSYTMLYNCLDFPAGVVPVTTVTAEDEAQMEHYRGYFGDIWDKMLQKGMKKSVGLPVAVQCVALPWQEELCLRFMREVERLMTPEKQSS

Here are 2 compounds together with their reported answers.
CN(C)C(=O)C(CCN1CCC(O)(c2ccc(Cl)cc2)CC1)(c1ccccc1)c1ccccc1 [Loperamide]    > 100 µM
COc1ccc(C(=O)C(=O)c2ccccc2Cl)cc1OC [2-chloro-3’,4’- dimethoxybenzil, 2-chloro-3’,4’-dimethoxybenzil]    7.6 µM

Now consider the entry below.
IN: Supply IC50 measured with FAAH (Homo sapiens, UniProt O00519) for NC(Cc1cc(I)c(Oc2cc(I)c(O)c(I)c2)c(I)c1)C(=O)O (stereo not drawn) [Thyroxine] .
OUT: > 100 µM

###

# assay-remarks: Fluorophore characterization
# Type: physicochemical
# assay-context: 37°C, phosphate buffer 100 mM pH 8, 0.1 mg/mL BSA, 1% DMSO
quantity-name: Maximum λemm
Quote the value and follow it with the unit of measurement.

Here are 3 compounds together with their reported answers.
COc1ccc(N)cn1    398 nm
COc1nc(C)ccc1N    364 nm
COc1ccc2cc(C=O)ccc2c1    462 nm

IN: Quick one: give measured Maximum λemm for COc1ccc(N)c(C)n1
OUT: 394 nm

###

Please provide measured Maximum λexc for the entries that follow.
# assay-remarks: Fluorophore characterization
# Type: physicochemical
# assay-context: 37°C, phosphate buffer 100 mM pH 8, 0.1 mg/mL BSA, 1% DMSO
Give bare numbers, in nm.

COc1ccc(N)cn1    304
COc1ccc2cc(C=O)ccc2c1    320
COc1nc(C)ccc1N    292

IN: Quick one: give measured Maximum λexc for COc1ccc(N)c(C)n1
OUT: 304

###

Please provide measured IC50 for the entries that follow.
# target-or-system: hCE1 (Homo sapiens)
# Sequence (P23141 18-567): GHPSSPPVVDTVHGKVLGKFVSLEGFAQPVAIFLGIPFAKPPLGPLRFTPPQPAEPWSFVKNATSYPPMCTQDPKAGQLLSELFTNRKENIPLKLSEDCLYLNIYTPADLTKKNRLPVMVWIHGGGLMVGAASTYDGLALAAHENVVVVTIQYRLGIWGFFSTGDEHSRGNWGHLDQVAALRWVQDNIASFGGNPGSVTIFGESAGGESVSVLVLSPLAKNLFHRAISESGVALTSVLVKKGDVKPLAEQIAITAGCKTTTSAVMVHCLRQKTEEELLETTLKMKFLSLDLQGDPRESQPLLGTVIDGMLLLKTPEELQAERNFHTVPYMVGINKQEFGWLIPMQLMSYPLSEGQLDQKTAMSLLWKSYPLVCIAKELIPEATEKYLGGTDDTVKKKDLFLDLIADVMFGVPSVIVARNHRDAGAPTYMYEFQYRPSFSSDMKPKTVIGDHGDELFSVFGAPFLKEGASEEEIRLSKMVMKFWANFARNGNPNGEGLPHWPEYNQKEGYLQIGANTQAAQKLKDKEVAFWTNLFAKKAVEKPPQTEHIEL
Answers are plain numbers, in nM.

COc1ccc(C(=O)C(=O)c2ccccc2Cl)cc1OC [2-chloro-3’,4’- dimethoxybenzil, 2-chloro-3’,4’-dimethoxybenzil]    2500

Now consider the entry below.
IN: Quick one: give measured IC50 for NC(Cc1cc(I)c(Oc2cc(I)c(O)c(I)c2)c(I)c1)C(=O)O (centres unmarked) [Thyroxine]
OUT: 1500
